Entries and their melting point

MOLECULE: CCCCCOC(=O)C(N)C=CCP(=O)(O)O (stereo not given)
melting point: 160 to 161 °C
//
MOLECULE: Cn1c(=O)c(-c2c(Cl)cccc2Cl)cc2cnc(Nc3cccc(CO)c3)nc21
melting point: 215 to 217 °C
//
MOLECULE: CCS(=O)(=O)c1nn(-c2ccccc2)c(=O)c2c(N)scc12
melting point: 190 to 191 °C
//
MOLECULE: CCn1c(C)nc2c(C3=NC(C)(C(C)C)C(=O)N3)c(C(=O)OC)ccc21 (stereo not given)
melting point: 189 to 191 °C

Could you now look at the following molecule, please?
[ask] # get_value(readout='melting point', item= Cc1cc2c3c(ccc(N4CCCC4)c3c1)C(=O)N(O)C2=O )
[reply] 236 to 237 °C

====

Entries and their melting point
# value in °C; strip the unit string

COMPOUND: COc1cc(-c2cnc3[nH]cc(C(=O)O)c3n2)cc(OC)c1OC
melting point, °C: 238

COMPOUND: OC(CN1CCNC1=S)c1ccccn1 (stereo not given)
melting point, °C: 120

COMPOUND: O=C(/C=C/c1c(F)cccc1Cl)/C=C/c1c(F)cccc1Cl
melting point, °C: 144

[ask] # get_value(readout='melting point', item= Cc1nc2ccc(S(=O)(=O)n3c(CCCC(=O)O)cc4nc(Cl)ccc43)cc2s1 )
[reply] 184

====

Entries and their melting point

COMPOUND: CS(=O)(=O)N(CCCl)N(C(=O)NCCCl)S(C)(=O)=O
melting point: 96 to 97.5 °C
--
COMPOUND: COc1cccc(N2CCN(Cc3cn4cc(Cl)ccc4n3)CC2)c1
melting point: 132 to 134 °C
--
COMPOUND: Cc1[nH]c(-c2ccccc2)nc1-c1ccc(Cl)cc1Cl
melting point: 222 to 224 °C
--
COMPOUND: COc1cc(O)c(CN(CCc2ccc([N+](=O)[O-])cc2)C(=O)OC(C)(C)C)c(OC)c1
melting point: 134 °C
--
COMPOUND: COC(=O)c1cc(C)sc1S(N)(=O)=O
melting point: 137 to 138 °C
--
COMPOUND: COc1ccc2c(C(=O)Nc3ccc(CN4CCN(C)CC4)c(C(F)(F)F)c3)nsc2c1
melting point: 156 °C
--
COMPOUND: C[C@H](Cn1cnnn1)n1cnc2cc3c(=O)n(C4CC4)nnc3cc2c1=O
melting point: 245 to 246 °C
--
COMPOUND: CN1C=CCC2C1N2S(=O)(=O)c1ccc(N)cc1 (stereo unspecified)
melting point: 188 to 190 °C

[ask] # get_value(readout='melting point', item= COc1cc(OC)c2c(=O)cc(-c3ccc(O)cc3)oc2c1 )
[reply] 301 to 303 °C

[ask] Proceed to COc1cc(OC)c2c(=O)[nH]c(-c3ccc(CN4CCN(C)CC4)cc3)nc2c1
[reply] 275 to 277 °C

====

Entries and their melting point

Here is how some molecules turned out for melting point.
MOLECULE: COc1cc2cnc(C(=O)O)cc2cc1OC
REPORTED_METRIC: melting point
RESULT: 228 °C
//
MOLECULE: CNCCC(O)(c1ccc(Br)cc1)c1ccccn1 (stereo unspecified)
REPORTED_METRIC: melting point
RESULT: 81 to 88 °C
//
MOLECULE: CCc1c(C)n(C)c2ccc(NC(=O)Nc3ccccn3)cc12
REPORTED_METRIC: melting point
RESULT: 120 to 123 °C
//
MOLECULE: CC(O)c1ccc(Cl)c(Cl)c1Cl (stereo unspecified)
REPORTED_METRIC: melting point
RESULT: 87 to 89 °C

[ask] # get_value(readout='melting point', item= CCOC(=O)C=CC(C)=CC=C(C)C=CC1=C(C)CCCC1(C)C )
[reply] 65 to 66 °C

[ask] Proceed to O[C@@H]1CCc2cc(F)c(F)cc2C1
[reply] 88 to 92 °C

[ask] Proceed to O=C(O)Cc1cccc2c(=O)cc(-c3cc(F)ccc3F)oc12
[reply] 222 to 224 °C

[ask] Proceed to O=[N+]([O-])c1cc(CS(=O)(=O)Cc2ccc(O)c([N+](=O)[O-])c2)ccc1O
[reply] 166 to 168 °C

[ask] Proceed to O=C(C=C1OC(=O)c2ccccc21)c1ccc(Cl)cc1
[reply] 158 to 159 °C

[ask] Proceed to CCCCCSc1cc(C(C)(C)C)c(O)c(C(C)(C)C)c1
[reply] 54 to 55 °C

[ask] Proceed to Cc1cc(-n2ccnc2)c2cccc(OCc3c(Cl)ccc(S(=O)(=O)N4CCC[C@H]4C(=O)NCCCN4CCOCC4)c3Cl)c2n1
[reply] 96 °C

[ask] Proceed to NC(=O)C(Nc1cccc2c1C(=O)CO2)c1c(Cl)cccc1Cl (stereo unspecified)
[reply] 245 °C

[ask] Proceed to CCCOc1ccc(S(C)(=O)=O)cc1-c1nc2c(CC)n[nH]c2c(=O)[nH]1
[reply] 276 to 277 °C

[ask] Proceed to COc1ccc(Sc2ccc([N+](=O)[O-])cc2[N+](=O)[O-])c(N)c1
[reply] 169 to 172 °C

[ask] Proceed to CC(=O)OCc1nccc2[nH]c(=O)ccc12
[reply] 162 to 165 °C

[ask] Proceed to COc1ccc(N2C(=O)C(O[Si](C(C)C)(C(C)C)C(C)C)C2c2ccc(C(F)(F)F)cc2)cc1 (stereo unspecified)
[reply] 132 to 133 °C

[ask] Proceed to CCC(Cc1ccccc1)(C(=O)c1ccc(N(C)C)cc1)N(C)C (stereo unspecified)
[reply] 77 to 80 °C

[ask] Proceed to Cc1ccc(N=C(Nc2ccc(C)cc2)ON2C(C)(C)CC(OC(=O)c3ccccc3)CC2(C)C)cc1
[reply] 124 to 128 °C

[ask] Proceed to C[N+](C)([O-])c1ccc(/C=C/c2c(F)cccc2Cl)cc1
[reply] 82 to 84 °C

[ask] Proceed to CCC(CC)n1cc(C)nc(Nc2c(C)cc(C)cc2C)c1=O
[reply] 109 °C
